- ASSAY SYSTEM: UniProtKB O14842
- EXPERIMENT: Agonist activity at human FFA1 expressed in CHO cells by Fluo4-AM dye based intracellular calcium flux assay
- Format: functional, cell-based
EC50 by entry:
The response must be a number in µM with no trailing unit.

Worked examples, 2 molecules total:
| STRUCTURE NOTATION | READOUT NUMBER |
| --- | --- |
| [2H]C([2H])(Cc1ccc(OCc2cccc(-c3c(C)cccc3C)c2)cc1)C(=O)O | 0.0427 |
| [2H]C([2H])(Cc1ccc(OCc2cccc(-c3c(C)cc(OCCCS(C)(=O)=O)cc3C)c2)cc1)C(=O)O | 0.0722 |

# input for lookup
Given item [2H]C([2H])(Cc1ccc(OCc2cccc(-c3ccccc3C)c2)cc1)C(=O)O , the value recorded as its EC50 is 0.0191

* * *

- ASSAY SYSTEM: Free fatty acid receptor 1 (Homo sapiens, UniProt O14842)
- Sequence (O14842 whole entry): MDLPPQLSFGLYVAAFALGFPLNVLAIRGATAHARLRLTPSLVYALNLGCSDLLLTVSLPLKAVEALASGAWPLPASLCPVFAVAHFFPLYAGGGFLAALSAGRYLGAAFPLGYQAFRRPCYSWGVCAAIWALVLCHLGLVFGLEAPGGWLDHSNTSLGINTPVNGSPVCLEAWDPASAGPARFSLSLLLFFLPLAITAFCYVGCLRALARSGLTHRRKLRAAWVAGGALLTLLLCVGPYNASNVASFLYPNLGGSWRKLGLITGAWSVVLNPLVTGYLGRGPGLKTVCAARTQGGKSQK
- EXPERIMENT: Agonist activity at human GPR40 expressed in HEK293 cells by Fluo4-AM dye based intracellular calcium flux assay
- Assay type: functional, cell-based
READOUT TYPE: pEC50
FYI, pEC50 means -log10 of a concentration in mol per litre.

Given item CC(C)(CCCCCCCCCCC(C)(C)CC(=O)O)CC(=O)O , the value recorded as its pEC50 is 5.91

* * *

- ASSAY SYSTEM: Free fatty acid receptor 1 (Homo sapiens)
- EXPERIMENT: Agonist activity at human recombinant FFA1 stably expressed in CHO cells assessed as increase in calcium flux by Fluo4-AM dye based FLIPR assay
- Format: functional, cell-based
READOUT TYPE: pEC50
FYI, pEC50 means -log10 of a concentration in mol per litre.

Given item Cc1ccccc1-c1cccc(COc2ccc(OCC(=O)O)c(F)c2)c1 , the value recorded as its pEC50 is 5.86
